- study_target: CDK4/CCND3 (Homo sapiens, UniProt P11802)
- Sequence (P11802 whole entry): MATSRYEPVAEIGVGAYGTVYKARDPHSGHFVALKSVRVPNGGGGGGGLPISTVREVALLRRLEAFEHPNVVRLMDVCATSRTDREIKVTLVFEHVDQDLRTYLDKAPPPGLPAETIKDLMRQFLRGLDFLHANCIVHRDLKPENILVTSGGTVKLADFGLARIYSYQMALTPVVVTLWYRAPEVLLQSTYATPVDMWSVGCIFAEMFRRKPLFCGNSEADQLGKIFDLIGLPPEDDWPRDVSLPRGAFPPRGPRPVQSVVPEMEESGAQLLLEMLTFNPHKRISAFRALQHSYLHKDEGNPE
- Sequence (P30281 whole entry partner): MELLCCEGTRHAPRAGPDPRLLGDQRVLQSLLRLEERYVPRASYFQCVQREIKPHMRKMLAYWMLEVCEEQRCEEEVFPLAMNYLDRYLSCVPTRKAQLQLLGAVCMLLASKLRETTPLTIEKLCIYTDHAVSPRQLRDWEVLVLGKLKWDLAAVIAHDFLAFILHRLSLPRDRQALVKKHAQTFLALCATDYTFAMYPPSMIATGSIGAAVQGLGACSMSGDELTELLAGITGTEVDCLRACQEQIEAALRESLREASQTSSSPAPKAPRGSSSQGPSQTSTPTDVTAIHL
- measurement_description: CDK4 homogeneous time-resolved fluorescence (HTRF) kinase assay
- Type: biochemical
- condition_label: CDK4/CCND; x = IC50 <25 nM; read-out: CDK4/CCND IC50 (<25 nM)
Below, each entry is listed alongside its reported IC50.

The following compounds have reported results that may help.
CC(C)S(=N)(=O)c1ccc(Nc2cc3c(C#Cc4ccc5c(c4)NC(=O)C5(C)C)nccc3cn2)cc1 (single isomer, unassigned) [Ex 455]    < 25 nM
CC1(C)C(=O)Nc2cc(C#Cc3nccc4cnc(Nc5ccc(S(=O)(=O)NC6CCNCC6)cc5)cc34)ccc21 [Ex 442]    < 25 nM
CN1CCC(NS(=O)(=O)c2ccc(Nc3cc4c(C#Cc5ccc6c(c5)NC(=O)C6(C)C)nccc4cn3)cc2)CC1 [Example 441]    < 25 nM
Cc1c(-c2nccc3cnc(Nc4ccc(S(N)(=O)=O)cc4)cc23)ccc2c1cnn2CCO [Ex 673]    < 25 nM
CC1(C)C(=O)Nc2cc(C#Cc3nccc4cnc(Nc5ccc(S(=N)(=O)C6CC6)cc5)cc34)ccc21 (single isomer, unassigned) [Ex 437]    < 25 nM

### Prompt What reported IC50 corresponds to N=S(=O)(c1ccc(Nc2cc3c(C#Cc4ccc5c(c4)NC(=O)C54CC4)nccc3cn2)cc1)C1CCC1 (single isomer, unassigned) [Ex 350] on CDK4/CCND3 (Homo sapiens, UniProt P11802)?
### Response < 25 nM

### Prompt What reported IC50 corresponds to CC1(C)C(=O)Nc2cc(C#Cc3nccc4cnc(Nc5ccc(S(=N)(=O)C6CCC6)cc5)cc34)ccc21 (single isomer, unassigned) [Ex 454] on CDK4/CCND3 (Homo sapiens, UniProt P11802)?
### Response < 25 nM
